Source: patent US10350206B2

target: catalytic domain of human Bub1 (amino acids 704-1085) (Homo sapiens); construct: catalytic domain of human Bub1 (amino acids 704-1085); His6 (N); made in house; host or cells: Hi5 insect cells; test: Bub1 kinase assay (TR-FRET); assay type: biochemical; conditions: 10 μM ATP, 60 min reaction, pH 7.5; read-out: Biological Assay 1: Bub1 kinase assay median IC50
Sequence (O43683 704-1085): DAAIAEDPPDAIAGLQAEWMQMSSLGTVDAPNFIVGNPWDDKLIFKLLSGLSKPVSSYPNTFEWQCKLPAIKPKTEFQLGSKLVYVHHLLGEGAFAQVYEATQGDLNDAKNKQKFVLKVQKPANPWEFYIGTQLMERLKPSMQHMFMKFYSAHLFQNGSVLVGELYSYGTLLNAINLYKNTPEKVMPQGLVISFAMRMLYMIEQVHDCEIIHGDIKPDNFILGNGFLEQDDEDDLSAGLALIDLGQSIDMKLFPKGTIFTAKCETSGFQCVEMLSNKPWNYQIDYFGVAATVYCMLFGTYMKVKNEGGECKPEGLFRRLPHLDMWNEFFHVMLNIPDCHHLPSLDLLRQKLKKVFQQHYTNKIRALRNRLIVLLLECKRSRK
Catalogue of pIC50 values
Lab note: report pIC50 as minus log10 of the concentration in molar units, number only.

COc1cnc(-c2nn(Cc3c(F)cc(OCCCO)cc3F)c3ccccc23)nc1Nc1cc(C)ncc1C; 7.82
COc1cnc(-c2nn(Cc3c(F)cc(OCCO)cc3F)c3ccccc23)nc1Nc1cc(C)ncc1C; 7.51
CCOc1cc(F)c(Cn2nc(-c3ncc(OC)c(Nc4ccncc4)n3)c3ccccc32)c(F)c1 [Example 6-4-1, reference compound]; 7.28
COc1cnc(C)cc1Nc1nc(-c2nn(Cc3c(F)cc(OCCO)cc3F)c3ccccc23)ncc1OC; 7.02

Then there is this compound:
Incoming: State the recorded pIC50 for this entry: `COc1cnc(-c2nn(Cc3c(F)cc(OC[C@H](C)CO)cc3F)c3ccccc23)nc1Nc1ccnc(NC(C)=O)c1`
Outgoing: 7.72

* * *

system: HeLa human cervical tumor cells; test: Proliferation assay (HeLa cell line); type: cell-based; settings: 96 h, 4 days incubation, crystal violet, read-out: Biological Assay 2: Proliferation assay (HeLa cell line) median IC50
Below, each entry is listed with its recorded IC50.

Completed entries (count: 4):
COc1cnc(-c2nn(Cc3c(F)cc(OCCO)cc3F)c3ccccc23)nc1Nc1ccnc(NC(C)=O)c1 [Example 2-1-4]; > 10 µM
COc1cnc(-c2nn(Cc3c(F)cc(OCCCO)cc3F)c3ccccc23)nc1Nc1cc(C)ncc1C [Example 2-3-1]; > 10 µM
COc1cnc(-c2nn(Cc3c(F)cc(OC[C@H](C)CO)cc3F)c3ccccc23)nc1Nc1ccnc(C)n1 [Example 2-3-4]; > 10 µM
COc1cnc(C)cc1Nc1nc(-c2nn(Cc3c(F)cc(OCCO)cc3F)c3ccccc23)ncc1OC [Example 2-1-19]; > 10 µM

Incoming: State the recorded IC50 for this entry: COc1cnc(-c2nn(Cc3c(F)cc(OCCCO)cc3F)c3ccccc23)nc1Nc1ccnc(C)n1 [Example 2-3-3]
Outgoing: > 10 µM
